Provenance of the data: PubChem BioAssay AID1259407

- Test system: CCRIS mutagenicity, Ames/micronucleus/aberration tests
- protocol-description: CCRIS mutagenicity studies
- test-context: Test System: E. COLI; Strain/Indicator: WP2 (PKM101); Metabolic Activation: NONE; Method: STANDARD PLATE
Calls of active or inactive are those of the source. The rule behind the calls is not given here.
Hi! Could you answer with just one of these? true (1) = active, false (0) = inactive

Challenge: Answer briefly: the call reported for COc1cccc(N)c1 in this assay.
Response given: false (0)

Challenge: Field: outcome | Entry: CC(=O)CC(=O)Nc1ccccc1C
Response given: false (0)

Challenge: Field: outcome | Entry: CC(C)(OO)c1ccccc1
Response given: true (1)

Challenge: For COC(=O)CCl , what call appears in the results of this test?
Response given: false (0)

====

- Tested on: CCRIS mutagenicity, Ames/micronucleus/aberration tests
- protocol-description: CCRIS mutagenicity studies
- test-context: Test System: AMES SALMONELLA TYPHIMURIUM; Strain/Indicator: TA98; Metabolic Activation: PLANT, HOMOGENATE, S-14; Method: STANDARD PLATE
Calls of active or inactive are those of the source. How the calls were made is not given here.
readout-label: mutagenic call

# smiles-entry, readout-label, observed-value
rows = [
    ("CCN(CC)C(=O)/C(Cl)=C(\\C)OP(=O)(OC)OC", "mutagenic call", "inactive; negative"),
    ("COC(=O)Nc1nc2ccccc2[nH]1", "mutagenic call", "inactive; negative"),
    ("CCSCCSP(=S)(OC)OC", "mutagenic call", "inactive; negative"),
    ("CCOP(=S)(OCC)SCSCC", "mutagenic call", "inactive; negative"),
]

====

- System: CCRIS mutagenicity, Ames/micronucleus/aberration tests
- protocol-description: CCRIS mutagenicity studies
- test-context: Test System: AMES SALMONELLA TYPHIMURIUM; Strain/Indicator: TA7001; Metabolic Activation: RAT LIVER S-9, AROCLOR 1254; Method: FLUCTUATION (MICROTITER)
Calls of active or inactive are those of the source. No rule for the calls is given here.
The categories you may choose from are active, inactive

Challenge: # fetch the recorded call for CC(C)(OO)c1ccccc1 here
Response given: active

Challenge: Assay outcome for CCC1CO1 (centres undefined) : what was it?
Response given: inactive

Challenge: So what was the verdict on CC(C)CON=O in this test?
Response given: inactive

Challenge: How did this test come out for CS(C)=O ?
Response given: inactive

====

- Test system: CCRIS mutagenicity, Ames/micronucleus/aberration tests
- protocol-description: CCRIS mutagenicity studies
- test-context: Test System: Ames Salmonella typhimurium; Strain/Indicator: TA1535; Metabolic Activation: Rat, Liver, S9, Sodium phenobarbital and 5,6-benzoflavone (10%); Method: Preincubation
Active and inactive are the calls of the source. The rule behind the calls is not given here.
# valid calls are 1 (active), 0 (inactive); nothing else

Challenge: # lookup: test call for O=C(O)CCCl
Response given: 1

Challenge: Answer briefly: the call reported for C=COC(C)=O in this assay.
Response given: 0

Challenge: Which result was noted for this molecule in the test: CC(=O)CC(=O)Nc1ccccc1C
Response given: 0

Challenge: Short answer needed: outcome of this test for C1N2CN3CN1CN(C2)C3 ?
Response given: 0

====

- System: CCRIS mutagenicity, Ames/micronucleus/aberration tests
- protocol-description: CCRIS mutagenicity studies
- test-context: Test System: AMES SALMONELLA TYPHIMURIUM; Strain/Indicator: TA1537; Metabolic Activation: HAMSTER, LIVER, S-9, AROCLOR 1254 (10%); Method: PREINCUBATION
Calls of active or inactive are those of the source. How the calls were made is not given here.
Permitted responses: active, inactive

Challenge: Fill in: this test's call for c1ccc(P(c2ccccc2)c2ccccc2)cc1 is ___
Response given: inactive

Challenge: Just curious, what result did C1N2CN3CN1CN(C2)C3 get here?
Response given: inactive

Challenge: What classification did c1ccsc1 end up with in this test?
Response given: inactive

Challenge: Answer briefly: the call reported for CCCCCCCCCCCCOS(=O)(=O)O in this assay.
Response given: inactive

Challenge: What outcome does the record of this test show for CC(CN1c2ccccc2Sc2ccccc21)N(C)C (configuration not stated) ?
Response given: inactive

Challenge: Answer briefly: the call reported for OCCO in this assay.
Response given: inactive

Challenge: Test call for this compound, please: COC(=O)Nc1nc2ccccc2[nH]1
Response given: active

Challenge: # fetch the recorded call for CN(C)CCO here
Response given: inactive

Challenge: Look up the recorded call for CNCCO in this test.
Response given: inactive

Challenge: Which outcome was assigned to COc1ccc(C(=O)c2ccccc2)c(O)c1 in this test?
Response given: inactive

Challenge: Tell me the assay call for O=c1nc(O)n(Cl)c(=O)n1Cl please.
Response given: inactive

Challenge: Answer briefly: the call reported for C=C(C)C(=O)OCC(Br)CBr (configuration not stated) in this assay.
Response given: inactive

Challenge: Test call, this compound: CNC[C@H](O)c1ccc(O)c(O)c1
Response given: inactive

Challenge: Outcome logged for C=CCc1ccc(OC)cc1 in this assay:
Response given: inactive

Challenge: Just curious, what result did NC=O get here?
Response given: inactive

Challenge: Write down the call the test reported for this compound. Item: CC(C)CCCCCCCOC(=O)c1ccccc1C(=O)OCCCCCCCC(C)C
Response given: inactive

Challenge: Outcome logged for C=CCN(CC=C)CC=C in this assay:
Response given: inactive

====

- Test system: CCRIS mutagenicity, Ames/micronucleus/aberration tests
- protocol-description: CCRIS mutagenicity studies
- test-context: Test System: AMES SALMONELLA TYPHIMURIUM; Strain/Indicator: TA100; Metabolic Activation: NONE
Calls of active or inactive are those of the source. The rule behind the calls is not given here.
Respond only with the outcome that fits, drawn from Y (active), N (inactive)

Challenge: Tell me the assay call for CC(C)NCC(O)COc1ccc(CC(N)=O)cc1 (stereo not given) please.
Response given: N

Challenge: State the result this test recorded for OCCN1CCN(CCCN2c3ccccc3Sc3ccc(C(F)(F)F)cc32)CC1 .
Response given: N

Challenge: Which outcome was entered for the compound O=CC=O in this test?
Response given: Y

Challenge: In this assay, the call recorded for O=C1CCCc2cc3c(cc21)cc([N+](=O)[O-])c1ccccc13 was what?
Response given: Y

Challenge: Which result was noted for this compound in the test: CC(C)CCC[C@@H](C)[C@H]1CC[C@H]2[C@@H]3CC4([C@H]5C[C@@H](Br)CC[C@]5(C)[C@H]3CC[C@]12C)S(=O)(=O)CCS4(=O)=O
Response given: N

====

- System: CCRIS mutagenicity, Ames/micronucleus/aberration tests
- protocol-description: CCRIS mutagenicity studies
- test-context: Test System: AMES SALMONELLA TYPHIMURIUM; Strain/Indicator: TA1537; Metabolic Activation: NONE; Method: STANDARD PLATE
Activity calls are given as the source filed them. No rule for the calls is given here.
Entry note: the call must match one of active, inactive

Challenge: Record lookup: outcome of this test for [O]=[Zr] ?
Response given: inactive

Challenge: // return assay outcome for C[n+]1ccn(COCCC(C)(C)[N+](=O)[O-])c1/C=N/O
Response given: inactive

Challenge: Name the outcome recorded for CCCCCCCCCCSCn1cc[n+](C)c1 in the assay.
Response given: inactive

Challenge: Hi, sorry to bother you, what did the test record for COC/C(=C/c1ccccc1)OC ?
Response given: active

Challenge: Record request — test call for CC(C)CCCCCCOC(=O)c1ccccc1C(=O)OCCCCCCC(C)C
Response given: inactive

Challenge: What classification did O=C(/C=C/c1ccc(O)c(O)c1)O[C@@H]1C[C@](O)(C(=O)O)C[C@@H](O)[C@H]1O end up with in this test?
Response given: inactive

Challenge: Returns: the outcome recorded for O=Nn1cc(CCO)c2ccccc21 in this assay.
Response given: active

Challenge: State the result this test recorded for C1COCCOCCOCCOCCOCCOCCO1 .
Response given: inactive

Challenge: Called result for C=C(C)C(=O)OCCO
Response given: inactive

Challenge: What outcome does the record of this test show for Nc1cc2c(O)c(N=Nc3ccc(N=Nc4ccc(S(=O)(=O)O)cc4)c4ccc(S(=O)O)cc34)c(S(=O)(=O)O)cc2cc1S(=O)(=O)O ?
Response given: inactive

Challenge: Each compound tested received a call. Report the one for O=C(Cl)OCc1ccccc1 .
Response given: inactive

Challenge: What classification did O=C(CCNNC(=O)c1ccncc1)NCc1ccccc1 end up with in this test?
Response given: inactive
